Just for reference, patent US7790682B1 is where these values come from.

Assay: Isothermal equilibrium denaturation in guanidine HCl monitored by CD
Type: physicochemical
Conditions: GuHCl, 298K, CD signal at 227 nm
# key: entry, value: Cm
MEASURED_PROPERTY: Cm (M)

{"MOLECULE": "SYM5/Δ104-106: SYM5 FGF-1 mutant plus Ala103→Gly/ΔGlu104/ΔLys105/ΔAsn106 (protein, UniProt P05230 16-155, looked up, variant L44F L73V V109L L111I C117V A103G del104-106) Fibroblast growth factor 1: FNLPPGNYKKPKLLYCSNGGHFLRILPDGTVDGTRDRSDQHIQFQLSAESVGEVYIKSTETGQYLAMDTDGLVYGSQTPNEECLFLERLEENHYNTYISKKHGWFLGIKKNGSVKRGPRTHYGQKAILFLPLPVSSD", "MEASURED_PROPERTY": "Cm", "UNITS_LABEL": "M", "REPORTED_MEASUREMENT": 1.47}
{"MOLECULE": "SYM6/ΔΔ: SYM6 FGF-1 mutant plus both Δ104-106 and Δ120-122 deletion mutations, SEQ ID NO: 1 (protein, Human FGF-1 mutant SYM6DD) FNLPPGNYKKPKLLYCSNGGHFLRILPDGTVDGTRDRSDQHIQFQLSAESVGEVYIKSTETGQYLAIDTDGLVYGSQTPNEECLFLERLEENHYNTYISKKHGWFLGIKKNGSVKGTHYGQKAILFLPLPVSSD", "MEASURED_PROPERTY": "Cm", "UNITS_LABEL": "M", "REPORTED_MEASUREMENT": 1.91}
{"MOLECULE": "SYM5/Δ120-122: SYM5 FGF-1 mutant plus Arg119→Gly/ΔGly120/ΔPro121/ΔArg122, SEQ ID NO: 2 (protein, Human FGF-1 mutant SYM5D120-122) FNLPPGNYKKPKLLYCSNGGHFLRILPDGTVDGTRDRSDQHIQFQLSAESVGEVYIKSTETGQYLAMDTDGLVYGSQTPNEECLFLERLEENHYNTYISKKHAEKNWFLGIKKNGSVKGTHYGQKAILFLPLPVSSD", "MEASURED_PROPERTY": "Cm", "UNITS_LABEL": "M", "REPORTED_MEASUREMENT": 1.00}
{"MOLECULE": "SYM6/Δ104-106: SYM6 FGF-1 mutant plus Ala103→Gly/ΔGlu104/ΔLys105/ΔAsn106 (protein, UniProt P05230 16-155, looked up, variant A103G E104* K105* N106*, SYM6 background mutations, SYM6 FGF-1 mutant plus Ala103→Gly/ΔGlu104/ΔLys105/ΔAsn106) Fibroblast growth factor 1: FNLPPGNYKKPKLLYCSNGGHFLRILPDGTVDGTRDRSDQHIQLQLSAESVGEVYIKSTETGQYLAMDTDGLLYGSQTPNEECLFLERLEENHYNTYISKKHGWFVGLKKNGSCKRGPRTHYGQKAILFLPLPVSSD", "MEASURED_PROPERTY": "Cm", "UNITS_LABEL": "M", "REPORTED_MEASUREMENT": 1.21}
{"MOLECULE": "SYM6/Δ120-122: SYM6 FGF-1 mutant plus Arg119→Gly/ΔGly120/ΔPro121/ΔArg122 (protein, UniProt P05230 16-155, looked up, variant L44F M67I L73V V109L L111I C117V R119G del120-122) Fibroblast growth factor 1: FNLPPGNYKKPKLLYCSNGGHFLRILPDGTVDGTRDRSDQHIQFQLSAESVGEVYIKSTETGQYLAIDTDGLVYGSQTPNEECLFLERLEENHYNTYISKKHAEKNWFLGIKKNGSVKGTHYGQKAILFLPLPVSSD", "MEASURED_PROPERTY": "Cm", "UNITS_LABEL": "M", "REPORTED_MEASUREMENT": 0.79}
{"MOLECULE": "SYM5/ΔΔ: SYM5 FGF-1 mutant plus both Δ104-106 and Δ120-122 deletion mutations (protein, UniProt P05230 16-155, looked up, variant L44F L73V V109L L111I C117V A103G del104-106 R119G del120-122) Fibroblast growth factor 1: FNLPPGNYKKPKLLYCSNGGHFLRILPDGTVDGTRDRSDQHIQFQLSAESVGEVYIKSTETGQYLAMDTDGLVYGSQTPNEECLFLERLEENHYNTYISKKHGWFLGIKKNGSVKGTHYGQKAILFLPLPVSSD", "MEASURED_PROPERTY": "Cm", "UNITS_LABEL": "M", "REPORTED_MEASUREMENT": 1.89}
{"MOLECULE": "SYM5: FGF-1 core mutant Leu44→Phe/Leu73→Val/Val109→Leu/Leu111→Ile/Cys117→Val (protein, UniProt P05230 16-155, looked up, variant L44F L73V V109L L111I C117V) Fibroblast growth factor 1: FNLPPGNYKKPKLLYCSNGGHFLRILPDGTVDGTRDRSDQHIQFQLSAESVGEVYIKSTETGQYLAMDTDGLVYGSQTPNEECLFLERLEENHYNTYISKKHAEKNWFLGIKKNGSVKRGPRTHYGQKAILFLPLPVSSD", "MEASURED_PROPERTY": "Cm", "UNITS_LABEL": "M", "REPORTED_MEASUREMENT": 1.05}
